Assay: Reaction rate (k°)
Assay type: physicochemical
Settings: Table 2
Param label: returns met when Reaction Rate (k°, in cm/s) < 0.006 cm/s, returns not met otherwise, including exact equality.

Example entries begin here.
sample smiles | category label
Cc1cc2c3[n+](c1)CCc1cc(C)c[n+](c1-3)CC2.[Cl-].[Cl-] | not met
COc1cc[n+]2c3c1CC[n+]1ccc(OC)c(c1-3)CC2.[Cl-].[Cl-] | met
[Cl-].[Cl-].c1cc2c3[n+](c1)CCCc1ccc[n+](c1-3)CCC2 | not met

Then there is this molecule:
Please state whether Reaction Rate (k°, in cm/s) is below 0.006 cm/s for `[Cl-].[Cl-].c1cc2c3[n+](c1)CCc1ccc[n+](c1-3)CC2` not met

* * *

Experiment: Water solubility by quantitative NMR
Format: physicochemical
Details: water (D2O), water, thermodynamic from solid; Table 3; at 20° C.
measured property: solubility

For this compound ( [Br-].[Br-].c1cc2c3[n+](c1)CC[n+]1cccc(c1-3)CC2 [reference compound] ), measured solubility is > 1500 mM

* * *

Assay: Diffusion coefficient by Levic plot, rotating disk electrode
Format: physicochemical
Details: Table 2
measured property: Diffusion coefficient (D, in cm^2s^−1)

sample smiles | Diffusion coefficient (D, in cm^2s^−1)
[Cl-].[Cl-].c1cc2c3[n+](c1)CCCc1ccc[n+](c1-3)CCC2 | 1.63 × 10^−5 cm^2s^−1
COc1cc[n+]2c3c1CC[n+]1ccc(OC)c(c1-3)CC2.[Cl-].[Cl-] | 2.5 × 10^−6 cm^2s^−1
[Cl-].[Cl-].c1cc2c3[n+](c1)CCc1ccc[n+](c1-3)CC2 | 1.62 × 10^−5 cm^2s^−1

For this molecule ( `Cc1cc2c3[n+](c1)CCc1cc(C)c[n+](c1-3)CC2.[Cl-].[Cl-]` ), measured Diffusion coefficient (D, in cm^2s^−1) is 6.45 × 10^−6 cm^2s^−1

For this molecule ( `CCOc1cc2c3[n+](c1)CCc1cc(OCC)c[n+](c1-3)CC2.Cl` ), measured Diffusion coefficient (D, in cm^2s^−1) is 1.41 × 10^−5 cm^2s^−1
